Target: PKB (Homo sapiens)
Construct: His; HA; made in house
Assay: PKB in vitro kinase activity assay (soluble His-HA-PKB / SPA bead screening)
Format: biochemical
Details: 1 μM compound concentration, Assay 1
Where no end group is shown, it is not given here. Side-chain parts run from the residue outwards. [ ]: non-standard residue; d: D form. The star is where a group is joined. X1 = 5‑aminoethylsulfonamide isoquinoline, O=S(=O)(NCCN*)c1cccc2cnccc12; hLeu = CC(C)CC[C@H](N)C(=O)O; Nle = CCCC[C@H](N)C(=O)O; Orn = NCCC[C@H](N)C(=O)O; Dab = NCC[C@H](N)C(=O)O; Nva = CCC[C@H](N)C(=O)O; Abu = CC[C@H](N)C(=O)O; Dap = NC[C@H](N)C(=O)O; βAla = NCCC(=O)O
Rule: PKB-kinase (spa) Assay 1, % inhibition of kinase activity of 10% or more gives 1.0; anything lower gives 0.0.

Entry 60020-78: Arg-Pro-Arg-Orn-Glu(bAla-5-aminoethylsulfonamide isoquinoline)-Ala-Hol (RPR[Orn]E([βAla-X1])A[hLeu]) : is its PKB-kinase (spa) Assay 1, % inhibition of kinase activity no less than 10%?
1.0

# bool: PKB-kinase (spa) Assay 1, % inhibition of kinase activity of 60020-83: Arg-Pro-Arg-Abu-Glu(bAla-5-aminoethylsulfonamide isoquinoline)-Orn-Phe (RPR[Abu]E([βAla-X1])[Orn]F) >= 10%
0.0

Is PKB-kinase (spa) Assay 1, % inhibition of kinase activity at least 10%? Consider 60020-2: Arg-Pro-Arg-Dap-Glu(5-aminoethylsulfonamide isoquinoline)-Dab-Hol (RPR[Dap]E(X1)[Dab][hLeu])
1.0

Identify whether the reported PKB-kinase (spa) Assay 1, % inhibition of kinase activity of the following substance is 10% or greater: 60020-62: Arg-Pro-Arg-Nle-Glu(Gly-5-aminoethylsulfonamide isoquinoline)-Ala-Hol (RPR[Nle]E([Gly-X1])A[hLeu])
1.0

Determine whether measured PKB-kinase (spa) Assay 1, % inhibition of kinase activity meets or exceeds 10% for 60020-21: Arg-Pro-Arg-Abu-Glu(5-aminoethylsulfonamide isoquinoline)-Ala-Phe (RPR[Abu]E(X1)AF)
0.0

Is PKB-kinase (spa) Assay 1, % inhibition of kinase activity for 60020-94: Arg-Pro-Arg-Nle-Glu(bAla-5-aminoethylsulfonamide isoquinoline)-Ala-Hol (RPR[Nle]E([βAla-X1])A[hLeu]) at or above 10%?
0.0

Determine whether measured PKB-kinase (spa) Assay 1, % inhibition of kinase activity meets or exceeds 10% for 60020-17: Arg-Pro-Arg-Abu-Glu(5-aminoethylsulfonamide isoquinoline)-Dab-Phe (RPR[Abu]E(X1)[Dab]F)
1.0

Item 60020-23: Arg-Pro-Arg-Abu-Glu(5-aminoethylsulfonamide isoquinoline)-Nva-Phe (RPR[Abu]E(X1)[Nva]F) with PKB-kinase (spa) Assay 1, % inhibition of kinase activity of 10% or above?
0.0

Can 60020-20: Arg-Pro-Arg-Abu-Glu(5-aminoethylsulfonamide isoquinoline)-Orn-Hol (RPR[Abu]E(X1)[Orn][hLeu]) be said to have PKB-kinase (spa) Assay 1, % inhibition of kinase activity at or above 10%?
1.0

Answer whether PKB-kinase (spa) Assay 1, % inhibition of kinase activity of 60020-65: Arg-Pro-Arg-Dap-Glu(bAla-5-aminoethylsulfonamide isoquinoline)-Dab-Phe (RPR[Dap]E([βAla-X1])[Dab]F) is greater than or equal to 10%.
1.0

Check this substance for PKB-kinase (spa) Assay 1, % inhibition of kinase activity at or above 10%: 60020-28: Arg-Pro-Arg-Nle-Glu(5-aminoethylsulfonamide isoquinoline)-Orn-Hol (RPR[Nle]E(X1)[Orn][hLeu])
1.0

Threshold query (PKB-kinase (spa) Assay 1, % inhibition of kinase activity >= 10%) on 60020-63: Arg-Pro-Arg-Nle-Glu(Gly-5-aminoethylsulfonamide isoquinoline)-Nva-Phe (RPR[Nle]E([Gly-X1])[Nva]F)
1.0

###

Target: PKB (Homo sapiens, UniProt P31749)
Construct: His; HA; made in house
Sequence (P31749 whole entry, species assumed): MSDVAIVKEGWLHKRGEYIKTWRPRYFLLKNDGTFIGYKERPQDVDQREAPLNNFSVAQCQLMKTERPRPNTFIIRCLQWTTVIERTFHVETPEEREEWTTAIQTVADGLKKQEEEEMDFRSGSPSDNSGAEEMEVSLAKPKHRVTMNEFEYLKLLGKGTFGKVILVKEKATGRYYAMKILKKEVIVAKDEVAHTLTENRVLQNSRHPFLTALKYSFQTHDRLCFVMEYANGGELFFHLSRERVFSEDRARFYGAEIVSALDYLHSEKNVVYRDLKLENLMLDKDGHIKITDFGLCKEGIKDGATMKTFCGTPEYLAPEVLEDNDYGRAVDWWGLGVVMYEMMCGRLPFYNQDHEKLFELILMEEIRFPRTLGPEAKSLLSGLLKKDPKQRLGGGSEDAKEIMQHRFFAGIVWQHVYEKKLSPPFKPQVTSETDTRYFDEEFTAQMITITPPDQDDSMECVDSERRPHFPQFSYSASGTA
Assay: PKB in vitro kinase activity assay (soluble His-HA-PKB / SPA bead screening)
Type: biochemical
Conditions: 1 μM compound concentration, Assay 1
Where no end group is shown, it is not given here. Side-chain parts run from the residue outwards. [ ]: non-standard residue; d: D form. The star is where a group is joined. X1 = 5‑aminoethylsulfonamide isoquinoline, O=S(=O)(NCCN*)c1cccc2cnccc12; hLeu = CC(C)CC[C@H](N)C(=O)O; Orn = NCCC[C@H](N)C(=O)O; Dab = NCC[C@H](N)C(=O)O; Abu = CC[C@H](N)C(=O)O; Dap = NC[C@H](N)C(=O)O; βAla = NCCC(=O)O
measured property: PKB-kinase (spa) Assay 1, % inhibition of kinase activity

# return recorded PKB-kinase (spa) Assay 1, % inhibition of kinase activity for input 60020-76: Arg-Pro-Arg-Orn-Glu(bAla-5-aminoethylsulfonamide isoquinoline)-Orn-Hol (RPR[Orn]E([βAla-X1])[Orn][hLeu])
38%

Return value of PKB-kinase (spa) Assay 1, % inhibition of kinase activity for input 60020-86: Arg-Pro-Arg-Abu-Glu(bAla-5-aminoethylsulfonamide isoquinoline)-Ala-Hol (RPR[Abu]E([βAla-X1])A[hLeu]) , no commentary.
−55%

Name the recorded PKB-kinase (spa) Assay 1, % inhibition of kinase activity of the item 60020-54: Arg-Pro-Arg-Abu-Glu(Gly-5-aminoethylsulfonamide isoquinoline)-Ala-Hol (RPR[Abu]E([Gly-X1])A[hLeu]) in your answer.
34%

Using the record for 60020-44: Arg-Pro-Arg-Orn-Glu(Gly-5-aminoethylsulfonamide isoquinoline)-Orn-Hol (RPR[Orn]E([Gly-X1])[Orn][hLeu]) , state its measured PKB-kinase (spa) Assay 1, % inhibition of kinase activity.
54%

Tell us which PKB-kinase (spa) Assay 1, % inhibition of kinase activity value is on record for 60020-70: Arg-Pro-Arg-Dap-Glu(bAla-5-aminoethylsulfonamide isoquinoline)-Ala-Hol (RPR[Dap]E([βAla-X1])A[hLeu])
57%

Could you please provide reported PKB-kinase (spa) Assay 1, % inhibition of kinase activity for 60020-33: Arg-Pro-Arg-Dap-Glu(Gly-5-aminoethylsulfonamide isoquinoline)-Dab-Phe (RPR[Dap]E([Gly-X1])[Dab]F) ? Thanks!
63%

Please list PKB-kinase (spa) Assay 1, % inhibition of kinase activity recorded for the substance 60020-45: Arg-Pro-Arg-Orn-Glu(Gly-5-aminoethylsulfonamide isoquinoline)-Ala-Phe (RPR[Orn]E([Gly-X1])AF)
29%

Supply measured PKB-kinase (spa) Assay 1, % inhibition of kinase activity of 60020-69: Arg-Pro-Arg-Dap-Glu(bAla-5-aminoethylsulfonamide isoquinoline)-Ala-Phe (RPR[Dap]E([βAla-X1])AF) in your reply.
36%

###

Exercise: state measured inhibition at 1 µM for each of the molecules provided.
Molecular target: PKA (Bos taurus, UniProt P00517)
Construct: purchased Promega
Experiment: In vitro PKA kinase activity assay (kemptide / SPA beads);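 note: Cell-free assay of purified PKA catalytic subunit phosphorylating the 7-mer kemptide substrate, run in MOPS buffer with magnesium acetate and BSA, with blank wells lacking enzyme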
Assay type: biochemical
Conditions: 1 μM compound concentration, Assay 2; read-out: PKA-kinase Assay 2, % inhibition of kinase activity
*1 amine or outer side, *2 acyl side, *3 side chain or, on linkers, in order; H or OH if unused. Where a SMILES comes first, the peptide text is derived from it. Side-chain parts run from the residue outwards. [ ]: non-standard residue; d: D form. The star is where a group is joined. Isoquinoline5sulfonyl = O=S(=O)(c1cccc2cnccc12)*; Ethylenediamine = C(CN[*:2])N[*:1]; hLeu = CC(C)CC[C@H](N)C(=O)O; Nle = CCCC[C@H](N)C(=O)O; Orn = NCCC[C@H](N)C(=O)O; Dab = NCC[C@H](N)C(=O)O
Supply the numeric figure in %, leaving out any unit text.

Return the recorded inhibition at 1 µM value; entry: CCCC[C@H](NC(=O)[C@H](CCCNC(=N)N)NC(=O)[C@@H]1CCCN1C(=O)[C@@H](N)CCCNC(=N)N)C(=O)N[C@@H](CCC(=O)NCC(=O)NCCNS(=O)(=O)c1cccc2cnccc12)C(=O)N[C@@H](CCN)C(=O)N[C@@H](CCC(C)C)C(N)=O [60020-58] (H-RPR[Nle]E([Gly-Ethylenediamine-Isoquinoline5sulfonyl])[Dab][hLeu]-NH2)
99

Return reported inhibition at 1 µM. Input molecule: CC(C)CC[C@H](NC(=O)[C@H](CCN)NC(=O)[C@H](CCC(=O)NCC(=O)NCCNS(=O)(=O)c1cccc2cnccc12)NC(=O)[C@H](CCCN)NC(=O)[C@H](CCCNC(=N)N)NC(=O)[C@@H]1CCCN1C(=O)[C@@H](N)CCCNC(=N)N)C(N)=O [60020-42] (H-RPR[Orn]E([Gly-Ethylenediamine-Isoquinoline5sulfonyl])[Dab][hLeu]-NH2)
99

Return the recorded inhibition at 1 µM value; entry: CCCC[C@H](NC(=O)[C@H](CCCNC(=N)N)NC(=O)[C@@H]1CCCN1C(=O)[C@@H](N)CCCNC(=N)N)C(=O)N[C@@H](CCC(=O)NCC(=O)NCCNS(=O)(=O)c1cccc2cnccc12)C(=O)N[C@@H](CCCN)C(=O)N[C@@H](Cc1ccccc1)C(N)=O [60020-59] (H-RPR[Nle]E([Gly-Ethylenediamine-Isoquinoline5sulfonyl])[Orn]F-NH2; N-terminus assumed)
93

State, in one line, measured inhibition at 1 µM of CCCC[C@H](NC(=O)[C@H](CCCNC(=N)N)NC(=O)[C@@H]1CCCN1C(=O)[C@@H](N)CCCNC(=N)N)C(=O)N[C@@H](CCC(=O)NCC(=O)NCCNS(=O)(=O)c1cccc2cnccc12)C(=O)N[C@@H](CCN)C(=O)N[C@@H](Cc1ccccc1)C(N)=O [60020-57] (H-RPR[Nle]E([Gly-Ethylenediamine-Isoquinoline5sulfonyl])[Dab]F-NH2)
96
